These entries and their values trace back to patent US20210292423A1.

Catalogue of % antibody positive transfected cells readings, one per entry.
- SYSTEM_NAME: T1, human CD3ε expressed alone on HEK293F cells (human, UniProt P07766 23-207)
- T1 construct: also called huCD3ε
- EXPERIMENTAL_DETAILS: flow cytometry, transfected HEK293F

{"BINDER": "18G9-H11 Fab (Fab, V domains shown) VH: EVQLVETGGSLVQPGKSLKLTCATSGFTFSNAWIQWVRQSPEKQLEWVAQIKAKSNNYATYYAESVKGRFTISRDDSKSSVYLQMNSLKEEDTALYYCTWRHYYSSHTMDAWGQGTLVTVSS VL: DVVMTQTPVSLSVSLGGQVSISCRSSQSLVHNNGNTYLSWYLQKPGQSPQLLIYKVSNRFSGISDRFSGSGSGTDFTLKISRVAPTDLGVYYCGQGSQYPFTFGAGTKLELK", "% antibody positive transfected cells / %": 95}
{"BINDER": "10E6-G6 Fab (Fab, V domains shown) VH: EVQLVETGGGLVQSGKSLKLTCATSGFTVTNAWMHWVRQSPEKQLEWVAQIKAKSNNYETYYAESVKGRFTISRDDSKSSVYLQMNSLKEEDTAIYYCRGTQYGYNPFDYWGQGVMVTVSS VL: DVVMTQSPVSLSVSLGGQVSISCRSSQSLVHNNGYTYLSWYLQKPGQSPQVFIYKVSNRFSGISDRFSGSGSGTDFTLKISRIEPDDLGVYYCGQGTHYPFTFGSGTKLEIK", "% antibody positive transfected cells / %": 96.3}
{"BINDER": "12G3-E8 Fab (Fab, V domains shown) VH: EVRVVETGGSLVQPGKSLKLTCATSGFTFSLAWMHWVRQSPEKKLEWVAQIKDKANNYATYYAESVKGRFTISRDDSKRSVYLQMNRLKEEDTAIYYCRGVYYGFSMTPFDYWGQGVMVTVSS VL: DVAMTQTPVSLSVSLGGQVSISCRSSQSLVHNNGNTYLSWYLQKPGQSPQVLIYKVSNRFSGISDRFSGSGSGADFTLKISRVEPDDLGVYYCGQGTQYPFTFGAGTKLELK", "% antibody positive transfected cells / %": 96.3}
